# System: Streptococcus pneumoniae
# Measurement Notes: Antimicrobial activity against Streptococcus pneumoniae by broth dilution method
# Type: functional
# Recorded Conditions: Streptococcus pneumoniae
Exercise: state measured MIC50 for each of the compounds provided.
Numbers only, in µg/mL.

Known results for compounds:
[[record]]
compound = "CC(=O)NC[C@H]1CN(c2ccc(N3CCOCC3)c(F)c2)C(=O)O1 [LINEZOLID]"
assay_metric = "MIC50"
numeric_value = 1

[[record]]
compound = "CO/N=C(\\C(=O)N[C@@H]1C(=O)N2C(C(=O)O)=C(COC(C)=O)CS[C@H]12)c1csc(N)n1 [CEFOTAXIME]"
assay_metric = "MIC50"
numeric_value = 0.12

[[record]]
compound = "C[C@H]1COc2c(N3CCN(C)CC3)c(F)cc3c(=O)c(C(=O)O)cn1c23.C[C@H]1COc2c(N3CCN(C)CC3)c(F)cc3c(=O)c(C(=O)O)cn1c23.O [LEVOFLOXACIN]"
assay_metric = "MIC50"
numeric_value = 1


Reported MIC50 for Cn1nnc(-c2ccc(-c3ccc(N4C[C@H](CO)OC4=O)cc3F)cn2)n1 [TEDIZOLID] : what is it?
0.25

====

# System: Staphylococcus aureus
# Measurement Notes: Antimicrobial activity against vancomycin-nonsusceptible Staphylococcus aureus by broth dilution method
# Type: functional
# Recorded Conditions: Staphylococcus aureus
Exercise: state measured MIC50 for each of the compounds provided.
Give bare numbers, in µg/mL.

[[record]]
structure_as_smiles = "CC(=O)NC[C@H]1CN(c2ccc(N3CCOCC3)c(F)c2)C(=O)O1"
target_or_test_system = "Staphylococcus aureus"
assay_metric = "MIC50"
unit_string = "µg/mL"
numeric_value = 2

[[record]]
structure_as_smiles = "C[C@H]1COc2c(N3CCN(C)CC3)c(F)cc3c(=O)c(C(=O)O)cn1c23.C[C@H]1COc2c(N3CCN(C)CC3)c(F)cc3c(=O)c(C(=O)O)cn1c23.O"
target_or_test_system = "Staphylococcus aureus"
assay_metric = "MIC50"
unit_string = "µg/mL"
numeric_value = 16


As a next step, examine the compound that follows.
Reported MIC50 for Cn1nnc(-c2ccc(-c3ccc(N4C[C@H](CO)OC4=O)cc3F)cn2)n1 : what is it?
0.25

====

# Tested on: Enterococcus faecium
# Measurement Notes: Antimicrobial activity against vancomycin-susceptible Enterococcus faecium by broth dilution method
# Type: functional
# Recorded Conditions: Enterococcus faecium
Assay Metric: MIC50 (µg/mL)
Answers are plain numbers, in µg/mL.

[[record]]
structure_as_smiles = "CC(=O)NC[C@H]1CN(c2ccc(N3CCOCC3)c(F)c2)C(=O)O1"
numeric_value = 2

[[record]]
structure_as_smiles = "C[C@H]1COc2c(N3CCN(C)CC3)c(F)cc3c(=O)c(C(=O)O)cn1c23.C[C@H]1COc2c(N3CCN(C)CC3)c(F)cc3c(=O)c(C(=O)O)cn1c23.O"
numeric_value = 4


Return MIC50 measured with Enterococcus faecium given this compound: Cn1nnc(-c2ccc(-c3ccc(N4C[C@H](CO)OC4=O)cc3F)cn2)n1
0.5

====

# System: Streptococcus pneumoniae
# Measurement Notes: Antimicrobial activity against penicillin-resistant Streptococcus pneumoniae by broth dilution method
# Type: functional
Exercise: state measured MIC90 for each of the molecules provided.
Give bare numbers, in µg/mL.

[[record]]
structure_as_smiles = "Cn1nnc(-c2ccc(-c3ccc(N4C[C@H](CO)OC4=O)cc3F)cn2)n1"
target_or_test_system = "Streptococcus pneumoniae"
numeric_value = 0.25

[[record]]
structure_as_smiles = "CO/N=C(\\C(=O)N[C@@H]1C(=O)N2C(C(=O)O)=C(COC(C)=O)CS[C@H]12)c1csc(N)n1"
target_or_test_system = "Streptococcus pneumoniae"
numeric_value = 8

[[record]]
structure_as_smiles = "CC(=O)NC[C@H]1CN(c2ccc(N3CCOCC3)c(F)c2)C(=O)O1"
target_or_test_system = "Streptococcus pneumoniae"
numeric_value = 2


As a next step, examine the molecule that follows.
Reported MIC90 for C[C@H]1COc2c(N3CCN(C)CC3)c(F)cc3c(=O)c(C(=O)O)cn1c23.C[C@H]1COc2c(N3CCN(C)CC3)c(F)cc3c(=O)c(C(=O)O)cn1c23.O : what is it?
1
